Field IC50: reported value for Ubiquitin carboxyl-terminal hydrolase 7 (Homo sapiens, UniProt Q93009); entries drawn from several documents.

Memo: `O=c1c2ccc(Cl)cc2ncn1CC1(O)CCN(c2cc([N+](=O)[O-])ccn2)CC1` , reported IC50: > 10000 nM

IC50 reading for O=C(C1Cc2cc(Cl)cc(-c3ccnc4[nH]ccc34)c2O1)N1CCC(c2ccccc2O)CC1 (stereo not shown) : 1000 to 10000 nM

What the record says about `O=c1n(Cc2cc3nccc(-c4cc(Cl)cc5c4N([C@H]4CCNC4)CCC5)c3s2)nc2n1CCC2` : IC50 is < 10 nM

Measured IC50 of Cn1ccc(=O)n(Cc2cc3nccc(-c4cc(C#N)cc5c4N(C4CNC(C)(C)C4)CCC5)c3s2)c1=O (stereo in doubt) : < 10 nM
